Target: Corticotropin-releasing factor receptor 2/Corticotropin-releasing factor-binding protein (Homo sapiens, UniProt P24387+Q13324)
Sequence (Q13324 whole entry): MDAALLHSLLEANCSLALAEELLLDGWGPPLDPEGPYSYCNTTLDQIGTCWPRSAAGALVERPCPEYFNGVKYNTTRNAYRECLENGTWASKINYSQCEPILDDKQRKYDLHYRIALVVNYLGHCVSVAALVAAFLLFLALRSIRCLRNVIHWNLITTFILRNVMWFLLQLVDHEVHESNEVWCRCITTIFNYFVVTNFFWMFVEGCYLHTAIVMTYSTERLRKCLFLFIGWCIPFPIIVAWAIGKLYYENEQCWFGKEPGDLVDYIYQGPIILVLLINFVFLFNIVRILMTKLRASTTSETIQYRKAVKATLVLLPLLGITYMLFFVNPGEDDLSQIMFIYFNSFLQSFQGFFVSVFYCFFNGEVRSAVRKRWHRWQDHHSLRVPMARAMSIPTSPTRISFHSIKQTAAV
Sequence (P24387 whole entry): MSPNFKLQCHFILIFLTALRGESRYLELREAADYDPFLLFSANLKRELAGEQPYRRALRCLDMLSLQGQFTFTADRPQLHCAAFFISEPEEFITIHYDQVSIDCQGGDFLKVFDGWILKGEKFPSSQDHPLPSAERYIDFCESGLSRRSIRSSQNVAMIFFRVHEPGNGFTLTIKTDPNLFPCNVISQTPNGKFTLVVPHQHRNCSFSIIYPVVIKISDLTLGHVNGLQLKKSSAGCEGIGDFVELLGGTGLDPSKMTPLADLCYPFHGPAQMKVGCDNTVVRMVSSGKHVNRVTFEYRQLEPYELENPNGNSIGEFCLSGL
Test: activators of CRF receptor 2 with binding protein – uHTS hits, confirmation (AID 602473)
Assay type: functional
Conditions: read-out: EC50_Mean
The source made the active and inactive calls. Rule as the data show it: actives have a measured EC50 and inactives only a lower limit.
Select the matching outcome among YES (active), NO (inactive)

Take a look at these entries with their results.
In [3]: df
Out[3]:
                                   compound  classification
0   O=C(NC(=S)Nc1ccc(F)cc1)c1ccc2c(c1)OCCO2              NO
1  COc1ccc(N2CCN(C(=O)c3csc4ccccc34)CC2)cc1              NO
2          CCN(CC)c1ccc(C=C2SC(=S)NC2=O)cc1             YES
3      C=CCNC(=S)N/N=C/c1ccc(OCc2ccccc2)cc1              NO
4  Cc1ccc(C(=O)NNC(=S)NC(=O)c2ccc(Cl)cc2Cl)cc1             YES
5                 Cc1ccc2c(c1)Oc1ccccc1N=C2              NO
6     Cc1nn(C)c(Cl)c1NC(=O)OCc1ccc(Cl)cc1Cl              NO
7  CCOc1ccc(NS(=O)(=O)c2ccc(C(=O)NCC(c3cccs3)N3CCOCC3)cc2)cc1 (stereo unspecified)             YES

Incoming: Outcome? `Cc1nc2c(s1)sc1ccccc12`
Outgoing: NO

Incoming: Outcome? CCOc1ccc(N(CC(=O)NC2CCC(C)CC2)S(=O)(=O)c2c(C)noc2C)cc1 (stereo unspecified)
Outgoing: NO

Incoming: Outcome? `Cc1ccccc1NS(=O)(=O)c1ccc(C)c(C(=O)N2CCOCC2)c1`
Outgoing: NO
